protocolText: Inhibitory activity against clostridium histolyticum collagenase
measurementKind: Ki (nM)
Write the number in nM without appending the unit.

CC(C(=O)NO)N(Cc1ccccc1[N+](=O)[O-])S(=O)(=O)c1cc(Cl)cc(Cl)c1O (stereo not drawn) ... 10
CC(C(=O)O)N(Cc1ccccc1[N+](=O)[O-])C(=O)NS(=O)(=O)c1ccc(F)cc1 (stereo not drawn) ... 3000

In the following, a different compound is considered.
Ki lookup needed for CC(C(=O)NO)N(Cc1ccccc1[N+](=O)[O-])S(=O)(=O)c1cccs1 (stereo not drawn) , thanks. 10

* * *

protocolText: Inhibitory activity against clostridium histolyticum collagenase
pKi: −log10 of the molar value.
Tag: rule met if measured pKi is not below 6, rule not met if it is.

CC(C(=O)O)N(Cc1ccccc1[N+](=O)[O-])S(=O)(=O)Cc1ccccc1 (stereo unspecified) ... rule not met
CC(C(=O)O)N(Cc1ccccc1[N+](=O)[O-])S(=O)(=O)c1ccc([N+](=O)[O-])cc1 (stereo unspecified) ... rule not met
CC(C(=O)NO)N(Cc1ccccc1[N+](=O)[O-])S(=O)(=O)c1ccc([N+](=O)[O-])c(Cl)c1 (stereo unspecified) ... rule met
CC(C(=O)O)N(Cc1ccccc1[N+](=O)[O-])S(=O)(=O)c1ccc(C(=O)O)cc1 (stereo unspecified) ... rule not met
CC(C(=O)O)N(Cc1ccccc1[N+](=O)[O-])S(=O)(=O)c1c(F)c(F)c(F)c(F)c1F (stereo unspecified) ... rule met

// switching to the query molecule
Reported pKi at or above 6? CC(C(=O)NO)N(Cc1ccccc1[N+](=O)[O-])Sc1ccc([N+](=O)[O-])cc1 (stereo unspecified) rule met

* * *

protocolText: Inhibitory activity against clostridium histolyticum collagenase
measurementKind: pKi
Just the number, please; pKi means minus log10 of the concentration in mol/L.

CC(C(=O)O)N(Cc1ccccc1[N+](=O)[O-])C(=O)NS(=O)(=O)c1ccc(Cl)cc1 (stereo unspecified) ... 5.57
CC(C(=O)NO)N(Cc1ccccc1[N+](=O)[O-])S(=O)(=O)C(F)(F)F (stereo unspecified) ... 7.15
Cc1ccc(S(=O)(=O)N(Cc2ccccc2[N+](=O)[O-])C(C)C(=O)NO)cc1 (stereo unspecified) ... 7.39

pKi lookup needed for CC(=O)c1ccc(S(=O)(=O)N(Cc2ccccc2[N+](=O)[O-])C(C)C(=O)O)cc1 (stereo unspecified) , thanks. 5.70

* * *

protocolText: Inhibitory activity against clostridium histolyticum collagenase
The reader will find reported Ki values listed item by item below.
Write the number in µM without appending the unit.

CC(C(=O)NO)N(Cc1ccccc1[N+](=O)[O-])C(=O)NS(=O)(=O)c1ccc(F)cc1 (configuration not stated) ... 0.008

In the following, a different compound is considered.
Ki lookup needed for CC(C(=O)O)N(Cc1ccccc1[N+](=O)[O-])Sc1ccc([N+](=O)[O-])cc1 (configuration not stated) , thanks. 6

* * *

protocolText: Inhibitory activity against clostridium histolyticum collagenase
measurementKind: pKi
Just the number, please; pKi means minus log10 of the concentration in mol/L.

Solved cases (4 shown):
Cc1ccccc1S(=O)(=O)NC(=O)N(Cc1ccccc1[N+](=O)[O-])C(C)C(=O)NO (stereo not given) ... 8.05
CC(C(=O)O)N(Cc1ccccc1[N+](=O)[O-])S(=O)(=O)c1cccc2ccccc12 (stereo not given) ... 5.80
Cc1ccccc1S(=O)(=O)NC(=O)N(Cc1ccccc1[N+](=O)[O-])C(C)C(=O)O (stereo not given) ... 5.52
CC(C(=O)O)N(Cc1ccccc1[N+](=O)[O-])S(=O)(=O)C(F)(F)F (stereo not given) ... 5.29

In the following, a different compound is considered.
pKi lookup needed for CC(C(=O)O)N(Cc1ccccc1[N+](=O)[O-])S(C)(=O)=O (stereo not given) , thanks. 4.66
